Data origin, for the record: the kinase profiling compilation of Christmann-Franck et al. (2016)

- Assayed target: CDK5 (human)
- Protocol description: KINOMEscan competition binding
- Test conditions: compound 10.0 µM
Measurement label: kinase still bound, per cent of control (%)

Prompt: # query: kinase still bound, per cent of control | item Cc1cnc(-c2cnc(NCCNc3ccc(C#N)cn3)nc2-c2ccc(Cl)cc2Cl)[nH]1 | system: CDK5 (human)
Response: 67

[I] O=C1Nc2cc(Br)ccc2/C1=C1/Nc2ccccc2/C1=N\O
[II] COc1ccc(CNC(=O)Nc2ncc([N+](=O)[O-])s2)cc1
[III] Cn1cc(C2=C(c3ccc(Cl)cc3Cl)C(=O)NC2=O)c2ccccc21
Prompt: Number of compounds to sort: 3. Sort criterion: kinase still bound, per cent of control, ascending. Answer by naming the labels in the order asked.
Response: I, III, II
(I: 9.5%, III: 47%, II: 72%)

----------
- Assayed target: PAK3 (human)
- Protocol description: KINOMEscan competition binding
- Test conditions: compound 10.0 µM
Measurement label: kinase still bound, per cent of control (%)

# count of solved cases: 2
Prompt: Returns the measured kinase still bound, per cent of control for the input compound. Input: Cc1cnc(-c2cnc(NCCNc3ccc(C#N)cn3)nc2-c2ccc(Cl)cc2Cl)[nH]1
Response: 90

Prompt: Repeat with Cn1cc(C2=C(c3ccc(Cl)cc3Cl)C(=O)NC2=O)c2ccccc21
Response: 86

[a] COc1ccc(CNC(=O)Nc2ncc([N+](=O)[O-])s2)cc1
[b] O=C1Nc2cc(Br)ccc2/C1=C1/Nc2ccccc2/C1=N\O
Prompt: Please choose the item with the lower kinase still bound, per cent of control value from this pair: a and b Your answer should be the label of the entry you select.
Response: b

----------
- Assayed target: EPHA7 (human) (UniProt Q15375)
- Sequence (Q15375 whole entry, looked up): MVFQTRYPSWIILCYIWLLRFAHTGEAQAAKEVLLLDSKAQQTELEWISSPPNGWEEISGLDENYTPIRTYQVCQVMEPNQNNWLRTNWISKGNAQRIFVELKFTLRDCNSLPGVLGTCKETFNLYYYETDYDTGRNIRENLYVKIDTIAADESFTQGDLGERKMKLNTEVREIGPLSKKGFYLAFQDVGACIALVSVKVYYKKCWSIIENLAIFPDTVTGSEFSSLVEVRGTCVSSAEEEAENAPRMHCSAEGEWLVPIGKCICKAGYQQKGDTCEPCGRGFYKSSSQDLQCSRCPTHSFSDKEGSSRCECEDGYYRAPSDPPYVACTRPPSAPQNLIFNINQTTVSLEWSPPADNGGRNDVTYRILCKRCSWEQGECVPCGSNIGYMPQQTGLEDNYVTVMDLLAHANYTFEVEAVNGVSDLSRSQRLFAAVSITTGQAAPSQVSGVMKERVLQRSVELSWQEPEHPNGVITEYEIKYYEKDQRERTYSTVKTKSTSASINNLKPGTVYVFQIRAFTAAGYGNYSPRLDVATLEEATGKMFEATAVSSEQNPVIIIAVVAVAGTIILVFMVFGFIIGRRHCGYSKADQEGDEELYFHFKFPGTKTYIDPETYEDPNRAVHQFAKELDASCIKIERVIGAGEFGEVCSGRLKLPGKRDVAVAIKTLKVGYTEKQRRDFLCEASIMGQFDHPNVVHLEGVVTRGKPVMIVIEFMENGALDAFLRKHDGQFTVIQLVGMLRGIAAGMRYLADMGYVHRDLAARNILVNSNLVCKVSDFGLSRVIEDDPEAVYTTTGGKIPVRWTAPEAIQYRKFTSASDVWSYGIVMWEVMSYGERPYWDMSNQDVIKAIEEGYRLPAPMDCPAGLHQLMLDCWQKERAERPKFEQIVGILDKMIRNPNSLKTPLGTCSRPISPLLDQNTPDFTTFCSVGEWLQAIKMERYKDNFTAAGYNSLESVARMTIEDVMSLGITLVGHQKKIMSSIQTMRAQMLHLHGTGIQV
- Protocol description: KINOMEscan competition binding
- Test conditions: compound 10.0 µM
Measurement label: kinase still bound, per cent of control (%)

Solved cases (2 shown):
Prompt: Can you look up the measured kinase still bound, per cent of control of Cc1cnc(-c2cnc(NCCNc3ccc(C#N)cn3)nc2-c2ccc(Cl)cc2Cl)[nH]1 for me?
Response: 100

Prompt: Ok, now Cn1cc(C2=C(c3ccc(Cl)cc3Cl)C(=O)NC2=O)c2ccccc21
Response: 95

[1] COc1ccc(CNC(=O)Nc2ncc([N+](=O)[O-])s2)cc1
[2] O=C1Nc2cc(Br)ccc2/C1=C1/Nc2ccccc2/C1=N\O
Prompt: Among 1 and 2 , which shows a numerically higher kinase still bound, per cent of control result? Use the label to indicate which entry you chose.
Response: 1
(1: 100%, 2: 62%)

----------
- Tested on: FGFR3 (human), P22607 [G697C]
- Sequence (P22607 whole entry G697C, looked up): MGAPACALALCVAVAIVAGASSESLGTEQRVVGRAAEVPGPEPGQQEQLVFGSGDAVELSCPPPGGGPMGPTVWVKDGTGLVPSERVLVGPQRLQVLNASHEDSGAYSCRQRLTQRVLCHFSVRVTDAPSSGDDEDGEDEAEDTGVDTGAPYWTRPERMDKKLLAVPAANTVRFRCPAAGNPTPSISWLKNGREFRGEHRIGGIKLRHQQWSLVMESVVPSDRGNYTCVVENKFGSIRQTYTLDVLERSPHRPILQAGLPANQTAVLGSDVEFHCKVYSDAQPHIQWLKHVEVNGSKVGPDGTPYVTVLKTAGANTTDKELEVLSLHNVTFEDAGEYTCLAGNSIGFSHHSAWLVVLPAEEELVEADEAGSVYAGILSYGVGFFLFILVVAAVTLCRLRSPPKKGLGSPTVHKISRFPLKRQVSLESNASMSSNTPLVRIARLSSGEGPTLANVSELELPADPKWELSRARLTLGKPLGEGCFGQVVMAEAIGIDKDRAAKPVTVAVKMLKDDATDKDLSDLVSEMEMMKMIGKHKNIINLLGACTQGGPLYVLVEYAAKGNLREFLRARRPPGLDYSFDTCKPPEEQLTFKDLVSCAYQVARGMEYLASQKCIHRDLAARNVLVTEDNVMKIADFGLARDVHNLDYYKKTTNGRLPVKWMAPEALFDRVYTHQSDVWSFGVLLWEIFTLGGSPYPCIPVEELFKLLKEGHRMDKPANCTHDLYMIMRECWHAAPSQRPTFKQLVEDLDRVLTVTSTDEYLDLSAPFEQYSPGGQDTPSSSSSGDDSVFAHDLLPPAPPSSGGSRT
- Protocol description: KINOMEscan competition binding
- Test conditions: compound 10.0 µM
Measurement label: kinase still bound, per cent of control (%)

Study these solved cases before continuing.
Prompt: Given the entry Cc1cnc(-c2cnc(NCCNc3ccc(C#N)cn3)nc2-c2ccc(Cl)cc2Cl)[nH]1 , report its measured kinase still bound, per cent of control.
Response: 100

Prompt: Now the compound COc1ccc(CNC(=O)Nc2ncc([N+](=O)[O-])s2)cc1
Response: 100

[a] O=C1Nc2cc(Br)ccc2/C1=C1/Nc2ccccc2/C1=N\O
[b] Cn1cc(C2=C(c3ccc(Cl)cc3Cl)C(=O)NC2=O)c2ccccc21
Prompt: Lower value of kinase still bound, per cent of control belongs to which: a or b ? Use the label to indicate which entry you chose.
Response: a

----------
- Assayed target: RIOK2 (human) (UniProt Q9BVS4)
- Sequence (Q9BVS4 whole entry, looked up): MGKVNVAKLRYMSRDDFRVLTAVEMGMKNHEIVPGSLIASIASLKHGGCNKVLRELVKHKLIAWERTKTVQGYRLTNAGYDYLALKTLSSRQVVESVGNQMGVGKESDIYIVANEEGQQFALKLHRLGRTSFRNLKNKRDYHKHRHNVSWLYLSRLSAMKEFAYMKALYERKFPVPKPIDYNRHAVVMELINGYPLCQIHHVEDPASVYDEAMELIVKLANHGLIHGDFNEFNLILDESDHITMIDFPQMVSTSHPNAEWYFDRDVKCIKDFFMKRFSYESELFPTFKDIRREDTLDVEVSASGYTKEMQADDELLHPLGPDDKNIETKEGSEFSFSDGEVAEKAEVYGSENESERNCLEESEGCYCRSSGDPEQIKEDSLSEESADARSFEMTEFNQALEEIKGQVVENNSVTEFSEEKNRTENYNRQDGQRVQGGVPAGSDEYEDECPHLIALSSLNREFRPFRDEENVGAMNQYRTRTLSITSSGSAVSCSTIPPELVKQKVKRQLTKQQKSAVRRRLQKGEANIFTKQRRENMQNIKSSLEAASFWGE
- Protocol description: KINOMEscan competition binding
- Test conditions: compound 10.0 µM
Measurement label: kinase still bound, per cent of control (%)

Prompt: Which measured kinase still bound, per cent of control belongs to O=C1Nc2cc(Br)ccc2/C1=C1/Nc2ccccc2/C1=N\O , tested on RIOK2 (human) (UniProt Q9BVS4)?
Response: 18

Prompt: Follow-up item: Cc1cnc(-c2cnc(NCCNc3ccc(C#N)cn3)nc2-c2ccc(Cl)cc2Cl)[nH]1
Response: 22

[I] COc1ccc(CNC(=O)Nc2ncc([N+](=O)[O-])s2)cc1
[II] Cn1cc(C2=C(c3ccc(Cl)cc3Cl)C(=O)NC2=O)c2ccccc21
Prompt: Could you point out whether the larger kinase still bound, per cent of control belongs to I or to II ? Response format: the label of the selected entry.
Response: II
(II: 95%, I: 23%)

----------
- Assayed target: ACVR2A (human)
- Protocol description: KINOMEscan competition binding
- Test conditions: compound 10.0 µM
Measurement label: kinase still bound, per cent of control (%)

Prompt: Quick one: kinase still bound, per cent of control for COc1ccc(CNC(=O)Nc2ncc([N+](=O)[O-])s2)cc1 ?
Response: 87

Prompt: Entry to check: Cc1cnc(-c2cnc(NCCNc3ccc(C#N)cn3)nc2-c2ccc(Cl)cc2Cl)[nH]1
Response: 100

[A] Cn1cc(C2=C(c3ccc(Cl)cc3Cl)C(=O)NC2=O)c2ccccc21
[B] O=C1Nc2cc(Br)ccc2/C1=C1/Nc2ccccc2/C1=N\O
Prompt: Of A and B , whose reported kinase still bound, per cent of control is numerically smaller? Reply with the label of the item you choose.
Response: B

----------
- Assayed target: ROCK1 (human) (UniProt Q13464)
- Sequence (Q13464 whole entry, looked up): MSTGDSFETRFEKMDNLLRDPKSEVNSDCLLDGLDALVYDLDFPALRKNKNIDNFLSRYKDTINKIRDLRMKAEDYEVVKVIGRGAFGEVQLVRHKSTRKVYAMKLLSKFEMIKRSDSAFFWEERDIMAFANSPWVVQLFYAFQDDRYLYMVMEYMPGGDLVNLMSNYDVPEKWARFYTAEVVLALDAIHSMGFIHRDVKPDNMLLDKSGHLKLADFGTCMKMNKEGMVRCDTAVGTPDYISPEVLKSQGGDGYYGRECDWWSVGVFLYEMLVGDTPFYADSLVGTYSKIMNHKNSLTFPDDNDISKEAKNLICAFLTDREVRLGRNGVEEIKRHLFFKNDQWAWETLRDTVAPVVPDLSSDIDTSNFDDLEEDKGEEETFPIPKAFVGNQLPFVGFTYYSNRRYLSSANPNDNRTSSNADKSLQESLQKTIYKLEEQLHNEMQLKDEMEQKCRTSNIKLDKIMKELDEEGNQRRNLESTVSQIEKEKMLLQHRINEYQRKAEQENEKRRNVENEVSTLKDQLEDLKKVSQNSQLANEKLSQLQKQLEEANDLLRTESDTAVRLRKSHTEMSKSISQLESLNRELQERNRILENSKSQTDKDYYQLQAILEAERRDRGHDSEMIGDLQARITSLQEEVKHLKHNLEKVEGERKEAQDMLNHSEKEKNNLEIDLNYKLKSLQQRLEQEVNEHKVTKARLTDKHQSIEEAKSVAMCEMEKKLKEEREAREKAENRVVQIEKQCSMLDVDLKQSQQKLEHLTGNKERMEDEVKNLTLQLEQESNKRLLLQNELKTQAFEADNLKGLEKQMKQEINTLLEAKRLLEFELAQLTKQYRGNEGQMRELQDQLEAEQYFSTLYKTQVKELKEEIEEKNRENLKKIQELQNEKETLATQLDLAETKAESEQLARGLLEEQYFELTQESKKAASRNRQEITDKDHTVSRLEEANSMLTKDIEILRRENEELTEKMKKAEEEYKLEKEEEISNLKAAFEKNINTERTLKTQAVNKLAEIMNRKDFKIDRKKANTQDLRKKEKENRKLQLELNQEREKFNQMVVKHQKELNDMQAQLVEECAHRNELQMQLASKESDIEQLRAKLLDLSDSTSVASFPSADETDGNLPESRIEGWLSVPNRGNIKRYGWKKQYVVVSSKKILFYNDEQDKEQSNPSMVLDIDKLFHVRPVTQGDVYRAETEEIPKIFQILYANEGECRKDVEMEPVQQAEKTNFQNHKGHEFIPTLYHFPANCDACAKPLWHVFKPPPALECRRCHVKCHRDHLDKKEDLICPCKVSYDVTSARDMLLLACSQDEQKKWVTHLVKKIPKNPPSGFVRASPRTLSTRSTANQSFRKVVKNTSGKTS
- Protocol description: KINOMEscan competition binding
- Test conditions: compound 10.0 µM
Measurement label: kinase still bound, per cent of control (%)

Prompt: Data request, read-out kinase still bound, per cent of control, for O=C1Nc2cc(Br)ccc2/C1=C1/Nc2ccccc2/C1=N\O
Response: 61

Prompt: # iterate: Cn1cc(C2=C(c3ccc(Cl)cc3Cl)C(=O)NC2=O)c2ccccc21
Response: 68

Prompt: What do we get for Cc1cnc(-c2cnc(NCCNc3ccc(C#N)cn3)nc2-c2ccc(Cl)cc2Cl)[nH]1 ?
Response: 85

Prompt: Could you do the same for COc1ccc(CNC(=O)Nc2ncc([N+](=O)[O-])s2)cc1 , please?
Response: 61

----------
- Assayed target: UniProt O00329
- Sequence (O00329 whole entry, looked up): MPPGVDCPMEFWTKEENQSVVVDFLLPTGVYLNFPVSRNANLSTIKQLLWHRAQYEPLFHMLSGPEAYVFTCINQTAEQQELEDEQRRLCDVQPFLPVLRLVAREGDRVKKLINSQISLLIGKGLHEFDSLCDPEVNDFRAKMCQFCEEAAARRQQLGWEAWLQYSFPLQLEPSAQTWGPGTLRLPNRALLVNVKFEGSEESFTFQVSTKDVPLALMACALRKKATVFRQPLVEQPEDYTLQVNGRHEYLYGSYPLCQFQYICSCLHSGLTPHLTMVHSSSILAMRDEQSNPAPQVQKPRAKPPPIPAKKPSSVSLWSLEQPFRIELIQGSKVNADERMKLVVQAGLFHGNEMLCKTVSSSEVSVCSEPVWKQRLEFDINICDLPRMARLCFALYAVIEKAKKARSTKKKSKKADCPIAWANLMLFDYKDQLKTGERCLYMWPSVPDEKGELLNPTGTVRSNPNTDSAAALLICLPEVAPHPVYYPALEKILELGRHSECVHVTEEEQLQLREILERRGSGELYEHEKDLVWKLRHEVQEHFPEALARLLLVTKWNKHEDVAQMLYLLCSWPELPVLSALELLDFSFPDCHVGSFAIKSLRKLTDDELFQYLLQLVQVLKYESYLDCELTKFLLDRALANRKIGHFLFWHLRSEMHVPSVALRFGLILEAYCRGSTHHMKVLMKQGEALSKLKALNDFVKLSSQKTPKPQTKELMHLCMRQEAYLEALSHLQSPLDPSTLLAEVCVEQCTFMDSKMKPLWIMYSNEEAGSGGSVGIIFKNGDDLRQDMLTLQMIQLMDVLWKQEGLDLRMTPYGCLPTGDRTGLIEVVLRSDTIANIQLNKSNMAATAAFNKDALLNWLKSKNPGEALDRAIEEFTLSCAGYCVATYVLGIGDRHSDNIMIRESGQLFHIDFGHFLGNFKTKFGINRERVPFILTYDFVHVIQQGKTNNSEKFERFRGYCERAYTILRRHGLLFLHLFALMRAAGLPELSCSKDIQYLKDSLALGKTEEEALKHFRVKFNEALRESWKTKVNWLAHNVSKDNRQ
- Protocol description: KINOMEscan competition binding
- Test conditions: compound 10.0 µM
Measurement label: kinase still bound, per cent of control (%)

Prompt: Data request, read-out kinase still bound, per cent of control, for COc1ccc(CNC(=O)Nc2ncc([N+](=O)[O-])s2)cc1
Response: 100

Prompt: Same for Cn1cc(C2=C(c3ccc(Cl)cc3Cl)C(=O)NC2=O)c2ccccc21
Response: 100

Prompt: Please answer likewise for Cc1cnc(-c2cnc(NCCNc3ccc(C#N)cn3)nc2-c2ccc(Cl)cc2Cl)[nH]1
Response: 93

Prompt: Could you do the same for O=C1Nc2cc(Br)ccc2/C1=C1/Nc2ccccc2/C1=N\O , please?
Response: 100

----------
- Assayed target: PRKG1 (human) (UniProt Q13976)
- Protocol description: KINOMEscan competition binding
- Test conditions: compound 10.0 µM
Measurement label: kinase still bound, per cent of control (%)

Example entries begin here.
Prompt: Reported kinase still bound, per cent of control for O=C1Nc2cc(Br)ccc2/C1=C1/Nc2ccccc2/C1=N\O : what is it?
Response: 100

Prompt: Same read-out for COc1ccc(CNC(=O)Nc2ncc([N+](=O)[O-])s2)cc1 ?
Response: 97

[a] Cc1cnc(-c2cnc(NCCNc3ccc(C#N)cn3)nc2-c2ccc(Cl)cc2Cl)[nH]1
[b] Cn1cc(C2=C(c3ccc(Cl)cc3Cl)C(=O)NC2=O)c2ccccc21
Prompt: Endpoint returns whichever of a and b has the numerically higher kinase still bound, per cent of control. Which one? Tell me its label.
Response: a

----------
- Assayed target: CSNK1E (human)
- Protocol description: KINOMEscan competition binding
- Test conditions: compound 10.0 µM
Measurement label: kinase still bound, per cent of control (%)

Examples from the recorded data:
Prompt: Fill in the blank: the reported kinase still bound, per cent of control of COc1ccc(CNC(=O)Nc2ncc([N+](=O)[O-])s2)cc1 is ____.
Response: 87

Prompt: Please do the same for Cn1cc(C2=C(c3ccc(Cl)cc3Cl)C(=O)NC2=O)c2ccccc21 as well.
Response: 49

[1] Cc1cnc(-c2cnc(NCCNc3ccc(C#N)cn3)nc2-c2ccc(Cl)cc2Cl)[nH]1
[2] O=C1Nc2cc(Br)ccc2/C1=C1/Nc2ccccc2/C1=N\O
Prompt: Form field 'greater kinase still bound, per cent of control' accepts 1 or 2 ; which applies? Select an item and report its label.
Response: 1
(1: 76%, 2: 18%)

----------
- Assayed target: RET (human)
- Protocol description: KINOMEscan competition binding
- Test conditions: compound 10.0 µM
Measurement label: kinase still bound, per cent of control (%)

Prompt: What measured kinase still bound, per cent of control goes with Cn1cc(C2=C(c3ccc(Cl)cc3Cl)C(=O)NC2=O)c2ccccc21 ?
Response: 100

Prompt: Next: Cc1cnc(-c2cnc(NCCNc3ccc(C#N)cn3)nc2-c2ccc(Cl)cc2Cl)[nH]1
Response: 100

[1] COc1ccc(CNC(=O)Nc2ncc([N+](=O)[O-])s2)cc1
[2] O=C1Nc2cc(Br)ccc2/C1=C1/Nc2ccccc2/C1=N\O
Prompt: From the items above, decide which of 1 and 2 has the lower kinase still bound, per cent of control reading. I would appreciate it if you answered with the label of your choice.
Response: 2
